Procedure Details: Stability study of Form 1 on storage
Type: physicochemical
Run Parameters: 25° C./60% RH, 3 months
Observable: HPLC assay (on an as is basis) (% w/w)
State the answer as a number, implicitly in % w/w.

Value of HPLC assay (on an as is basis) reported for the compound COCc1nn(Cc2ccc(Cn3ccccc3=O)cc2)cc1C(=O)NCc1nccc(OC)c1F [Form 1] is 99.5

====

Procedure Details: Pharmacokinetic study, single oral dose in rats
Assay type: in vivo
Run Parameters: male, Sprague-Dawley, plasma; rat, po 10.1 mg/kg, vehicle TPGS solution (20% aq. w/v)
Observable: Tmax (h)
State the answer as a number, implicitly in h.

Value of Tmax reported for the molecule COCc1nn(Cc2ccc(Cn3ccccc3=O)cc2)cc1C(=O)NCc1nccc(OC)c1F [compound of Formula A] is 1.17

====

Procedure Details: Pharmacokinetic study, single oral dose in rats
Assay type: in vivo
Run Parameters: male, Sprague-Dawley, plasma; rat, po 10.1 mg/kg, vehicle TPGS solution (20% aq. w/v)
Observable: Cmax

Value of Cmax reported for the compound COCc1nn(Cc2ccc(Cn3ccccc3=O)cc2)cc1C(=O)NCc1nccc(OC)c1F [compound of Formula A] is 1940 ng/mL

====

Procedure Details: Visual Aqueous Solubility
Assay type: physicochemical
Run Parameters: thermodynamic from solid; 10 mg in 20 mL water
Method: Form 1 (10 mg) was weighed into a glass vial and water was added in […] up to 3 mL then 1 mL portions thereafter. Solubility was assessed visually following a brief period of equilibration.
Observable: solubility

Value of solubility reported for the molecule COCc1nn(Cc2ccc(Cn3ccccc3=O)cc2)cc1C(=O)NCc1nccc(OC)c1F [Form 1] is < 500 µg/mL
